Every entry's value here was drawn from PubChem BioAssay (NCI).

System: MOLT-4 leukemia
ASSAY_PROCEDURE: NCI-60 one-dose screen, 48 h
CONDITION_CONTEXT: 10 µM unless noted
Description: Growth inhibition of the MOLT-4 human tumor cell line is measured as a screen for anti-cancer activity. Cells are grown in 96 well plates and exposed to the test compound for 48 hours. Compounds are tested at a single concentration, which is 10^-5 M for most compounds. The reported endpoint is percent growth (GI% or GIPRCNT), where numbers from 0 - 100% represent growth inhibition, and numbers from -100% - 0 represent cell death. For example, a value of 40 represents 60% growth inhibition. […]
Compounds without any hit were thinned out: in the full panel of roughly 83,000, 20% have a hit. Active and inactive are the calls of the source. How the source made its calls: active means growth percent below 10; inactive means the rest.
Possible outcomes: 1 (active), 0 (inactive)

# MOLECULE, TARGET, LABEL_CLASS
data = [
    ("O=C(/C(=C/c1ccc([N+](=O)[O-])cc1)SCc1ccc(Cl)cc1)c1ccc(F)cc1", "MOLT-4 leukemia", 1),
    ("C=C(C)[C@@H]1CC[C@]2(C(=O)O)CC[C@]3(C)[C@H](CC[C@@H]4[C@@]5(C)C[C@@H](CC#Cc6ccccc6C)C(=O)C(C)(C)[C@@H]5CC[C@]43C)[C@@H]12", "MOLT-4 leukemia", 0),
    ("Cc1cc(C)c(NC(=O)c2sc3nc4c(cc3c2N)CCCCCC4)c(C)c1", "MOLT-4 leukemia", 0),
    ("CN(C)CSc1nc2ccccc2s1", "MOLT-4 leukemia", 0),
    ("COC(=O)c1nc(-c2ccccc2)oc1S(=O)(=O)n1nc(-c2ccccc2)cc1N", "MOLT-4 leukemia", 0),
    ("CCCNc1nc(C)[nH]c(=O)c1S", "MOLT-4 leukemia", 0),
    ("CC(C)(C)c1ccc(O)c(Cc2cc(C(C)(C)C)ccc2O)c1", "MOLT-4 leukemia", 0),
    ("COc1ccc(-c2nnc(N3CCN(C(=O)CN4CCN(c5ccc(OC)cc5)CC4)CC3)nc2-c2ccc(OC)cc2)cc1", "MOLT-4 leukemia", 1),
    ("COc1cc(-c2csc(NC(=O)Nc3cc(Cl)cc(Cl)c3)n2)cc(OC)c1OC", "MOLT-4 leukemia", 0),
    ("Cc1nccc2c3ccc(OCc4cn(-c5ccc(Cl)cc5)nn4)cc3n(CC(C)C)c12", "MOLT-4 leukemia", 1),
    ("CCSc1nc(Cl)c(C#N)c(-c2ccc(F)cc2)n1", "MOLT-4 leukemia", 0),
    ("OCCNc1nc(NCCO)nc(Nc2ccc(C3=NN(c4cc(Cl)cc(Cl)c4)C(c4ccc(Cl)cc4)C3)cc2)n1 (centres undefined)", "MOLT-4 leukemia", 1),
    ("CCOC(=O)C1=C(C)n2nc(CC#N)c(C#N)c2NC1c1ccc(CC)cc1 (centres undefined)", "MOLT-4 leukemia", 0),
    ("COc1cc(C2=NN(c3ccccc3)C(c3cccc(Nc4ccnc5cc(C(F)(F)F)ccc45)c3)C2)cc(OC)c1OC (centres undefined)", "MOLT-4 leukemia", 0),
    ("COC(=O)c1ccc(NC(=O)CSc2nc(-c3ccc(F)cc3)nc3ccccc23)cc1", "MOLT-4 leukemia", 0),
    ("Cc1cc(C)cc(Nc2nccc(-c3c(-c4ccc(F)cc4)ncn3C3CCNCC3)n2)c1", "MOLT-4 leukemia", 1),
    ("Cn1c2ccccc2c2c(OC(=O)c3ccccc3)c3c(nc21)-c1ccccc1C3", "MOLT-4 leukemia", 0),
    ("O=C1[C@@H](OS(=O)(=O)CC(F)(F)F)[C@H](c2ccc(F)cn2)N1c1cc2c3ccccc3ccc2c2ccccc12", "MOLT-4 leukemia", 1),
    ("Cc1cc(Cl)cc(CN(Cc2ccccc2)Cc2c(O)ccc3ccccc23)c1O", "MOLT-4 leukemia", 0),
    ("CCOC(=O)CC[C@H](NC(=O)c1ccc(NC)c2ccccc12)C(=O)OCC", "MOLT-4 leukemia", 0),
    ("O=c1[nH]nc(-c2ccc(Br)cc2)c2sc(NC(=S)Nc3ccc(Cl)cc3)nc12", "MOLT-4 leukemia", 0),
    ("C=C(C)[C@@H]1CC[C@]2(C(=O)OCCOCCOCC[P+](c3ccccc3)(c3ccccc3)c3ccccc3)CC[C@]3(C)[C@H](CC[C@@H]4[C@@]5(C)CC[C@H](C)C(C)(C)[C@@H]5CC[C@]43C)[C@@H]12", "MOLT-4 leukemia", 1),
    ("Cc1c(C(=O)Nc2nc3ccccc3[nH]2)cnn1-c1ccccn1", "MOLT-4 leukemia", 0),
    ("Cc1nnc(/N=C2\\NC(=O)/C(=C/c3ccsc3)S2)s1", "MOLT-4 leukemia", 0),
    ("N#CC1C(c2ccc(Cl)cc2)=Nc2c(c(-c3ccccc3)nn2-c2ccccc2)C12C(=O)Nc1ccc(Cl)cc12 (centres undefined)", "MOLT-4 leukemia", 0),
    ("CC1(C)[C@@H](O)CC[C@]2(C)[C@H]3CC[C@@H]4[C@H]5[C@H](c6cn(-c7ccccc7)nn6)CC[C@]5(CO)CC[C@@]4(C)[C@]3(C)CC[C@@H]12", "MOLT-4 leukemia", 0),
    ("COC(=O)/C=C/c1cc(OC(C)=O)c2c(c1)C(C(=O)OC)C(c1ccc(OC(C)=O)c(OC(C)=O)c1)O2 (centres undefined)", "MOLT-4 leukemia", 0),
    ("CC[C@]12C=CCN3CC[C@@]4(c5cc(NC(=O)CCC(=O)O[C@H]6CC[C@H]7[C@@H]8CC[C@H]9CC(=O)CC[C@]9(C)[C@H]8CC[C@]67C)c(OC)cc5N(C)[C@H]4[C@@](O)(C(=O)OC)[C@@H]1OC(C)=O)[C@@H]32", "MOLT-4 leukemia", 0),
    ("C=C(C)[C@@H]1CC[C@]2(C(N)=O)CC[C@]3(C)[C@H](CC[C@@H]4[C@@]5(C)CCCNC(C)(C)[C@@H]5CC[C@]43C)[C@@H]12", "MOLT-4 leukemia", 0),
    ("CCc1c(C(=O)N[C@@H](C(=O)OCc2ccccc2)C(C)O)[nH]c2ccc(Cl)cc12 (some centres undefined)", "MOLT-4 leukemia", 0),
    ("O=C(Nc1ccc2ncnc(Nc3cccc(C(F)(F)F)c3)c2c1)c1cccs1", "MOLT-4 leukemia", 0),
    ("COc1cc(/C=C/C(=O)/C=C/c2cc3ccc(Cl)cc3n(Cc3ccccc3)c2=O)ccc1O", "MOLT-4 leukemia", 1),
    ("Cn1c2c(c3ccc(-c4ccn[nH]4)cc3c1=O)C(=O)c1ccccc1-2", "MOLT-4 leukemia", 1),
    ("O=C(Nc1ccccc1)NS(=O)(=O)c1c[nH]c(=S)[nH]c1=O", "MOLT-4 leukemia", 0),
]
